Reported A450nm by item:
# target under test: T1, Recombinant human PSGL-1(ECD)-hFc1 (R&D Systems, Cat. 3345-PS) (human, UniProt Q14242 42-305)
# T1 construct: Bought; Gln42-Val295 counted on AAC50061; also called PSGL-1-Fc; PSGL-1-hFc1 chimera; not shown: human IgG1 Fc, Pro100-Lys330
# T1 sequence: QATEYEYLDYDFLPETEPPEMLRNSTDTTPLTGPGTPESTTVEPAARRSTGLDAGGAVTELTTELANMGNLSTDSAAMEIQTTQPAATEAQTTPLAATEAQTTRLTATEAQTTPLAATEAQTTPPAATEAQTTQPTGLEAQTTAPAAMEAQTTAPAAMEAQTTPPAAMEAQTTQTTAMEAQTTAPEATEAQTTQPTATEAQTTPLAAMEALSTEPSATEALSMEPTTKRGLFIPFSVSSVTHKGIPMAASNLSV
# test protocol: ELISA, 50 nM mAb
Kindly provide the numeric value in A450nm only, without the unit symbol.

Completed entries (count: 2):
- 5E12 (antibody, V domains shown, Mouse hybridoma mAb; only variable domains given) VH: EIQLQQSGAELVRPGASVKLSCTASGFNIKDDYIHWVKQRPEQGLEWIGRIDPANGNTKSAPKFQDKATITADTSSNTAYLHLSSLTSEDTAVYYCSIRFAYWGQGTLVTVSA VL: DVVMTQTPLSLSVSLGDQASISCRSSQSLVYRNGDTYLHWFLQKPGQSPKLLIYKVSNRFSGVPDRFSGSGSGTDFTLKISRVEAEDLGIYFCSQNTHVPYTFGGGTKLEIK: 2.05
- 09B09 (antibody, IgG4, V domains shown) VH: EVKLLESGGGLVQPGGSLRLSCAASGITFSTYAMMWVRQAPGKGLEWVSGISGSGASRYYADSVKGRFTISRDNSKNMLYLQMNSLRAEDTAVYYCAKKVLGRRKQYFDDWGQGTLVTVSS VL: DIVMTQSPLSLPVTPGEPASISCRSSQSLLHSNGYNYLDWYLQRPGQSPQLLIYLGSHRASGVPDRFSGSGSGTEHTLKITTVAAEDVGVYYCMQALQSPPTFGQGTRLDIK: 1.96

Now, please, on to the next binder.
Please supply the value of reported A450nm for the item 05E08 (antibody, IgG4, V domains shown) VH: EVQLVQSGGGVVQPGRSLRLSCAASGFTFSTYAMHWVRQAPGKGLEWVAVISYDGSNKYYADSVKGRFTISRDNSRNTLFLQMNSLRDEDTAVYYCAKRGTMIRGERSLDFWGQGTLVTVSS VL: AIQMTQSPSFLSASVGDRVTITCRASQGINSWLAWYQQKPGTAPNLLIHAASTLQSGVPSRFSGSRSGTEFTLTISSLQPEDFATYYCQQLQSYPLTFGQGTRLEIK
2.46

Values from patent US20220396632A1
